Listing: GI50 of selected compounds
- Test system: PC-3
- Procedure text: NCI tumour cell line growth inhibition, 48 h
Calls of active or inactive are those of the source. No stated cut-off is given here; in the data, active = GI50 up to about 1.1 µM and inactive = higher.

COc1ccc(-c2nc(N)n(C)c2SSc2c(-c3ccc(OC)cc3)nc(N)n2C)cc1 :: 6.34 µM (inactive)

-- ask Looking for the measured GI50 of CC1(C)C2CCC1(C)C(N/C(=C(/C(Cl)=C(Cl)Cl)[N+](=O)[O-])n1nnc3ccccc31)C2 (stereo not given) , can you help?
-- reply 21.1 µM (inactive)

-- ask Then what about the compound O=C(c1ccccc1)c1ccc(N2C(=O)/C(=C/c3ccccc3S)N=C2c2ccccc2)c(N2C(=O)/C(=C/c3ccccc3S)N=C2c2ccccc2)c1 ?
-- reply 42.6 µM (inactive)

-- ask Now the compound COC(=O)CCC1(O)C=CC(=O)C=C1
-- reply > 100 µM (inactive)

-- ask Can you check CCCCn1c(C)c2c(c1C)C(=O)N(CCN1CCN(c3ccccc3Cl)CC1)C2=O next?
-- reply 28.4 µM (inactive)
